Attribution: patent US20240376151A1

assay_system: RNF31 PUB domain (Homo sapiens, UniProt Q96EP0)
Construct: MBP-TEV (N, cleaved yes); made in house; host or cells: E. coli BL21 (DE3) pLysS
Sequence (Q96EP0 1-179): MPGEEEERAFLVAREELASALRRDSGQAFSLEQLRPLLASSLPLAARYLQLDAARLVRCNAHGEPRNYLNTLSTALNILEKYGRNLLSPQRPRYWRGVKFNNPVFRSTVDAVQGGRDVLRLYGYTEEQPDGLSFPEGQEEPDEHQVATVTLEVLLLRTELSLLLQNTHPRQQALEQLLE
assay_notes: Phage Library Screening with NGS, RNF31 PUB domain
Format: binding
experimental_conditions: RNF31 PUB domain clusters C41-C45; target concentration 1000, first column
property: Phage library screen NGS readout, Target Concentration 1000

DPAWTQCDWAALYCEDQ
7
DPATEACFDAAIECTYY
7
DPAQYQCWNAAMSCSYS
7
DPALEDCQWAALYCDEY
7
DPAWWNCLYAANTCVED
7
DPAYDWCLYAAEYCHTD
7
DPAQDWCMYAAYECDAH
7
DPAEDECDWAALYCDMQ
7
DPAIWECVSAAAVCMTY
7

====

assay_system: CHIP (Homo sapiens, UniProt Q9UNE7)
Construct: N-term truncated CHIP (also known as STUB1, Uniprot ID: Q9UNE7, residues 23-303); made in house; host or cells: E. coli BL21 CodonPlus
Sequence (Q9UNE7 23-303): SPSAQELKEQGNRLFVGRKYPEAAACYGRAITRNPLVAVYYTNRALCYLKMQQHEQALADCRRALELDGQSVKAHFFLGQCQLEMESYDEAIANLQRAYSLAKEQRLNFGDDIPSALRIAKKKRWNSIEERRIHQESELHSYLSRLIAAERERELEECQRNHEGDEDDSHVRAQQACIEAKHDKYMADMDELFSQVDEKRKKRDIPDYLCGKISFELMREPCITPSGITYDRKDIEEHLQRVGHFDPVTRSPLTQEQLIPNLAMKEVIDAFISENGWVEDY
assay_notes: Naive Library Presenter Screening (phage, NGS), CHIP
Assay type: binding
experimental_conditions: CHIP clusters (C83, C84); target concentration 1000 nM, second column
Numbered stars: 1 amine (or outer) side, 2 acyl side, 3 side chain; on linkers, the order of the positions; unused ones are H or OH. Bridge positions count the residues as written; N and C are the ends. Ends that are not written are not given here. Phenylene(1,4-NHCOCH2)2 = O=C(C[*:1])Nc1ccc(NC(=O)C[*:2])cc1
property: interaction data at Target Concentration 1000

DPAVRWCAAAAAICMVD (linker 7-14 via Phenylene(1,4-NHCOCH2)2 (inferred); not fully specified (C-terminus))
22
DPAFTRCQFAAAVCNFT (linker 7-14 via Phenylene(1,4-NHCOCH2)2 (inferred))
28
DPAIIWCSQAASICTVD (linker 7-14 via Phenylene(1,4-NHCOCH2)2 (inferred))
24
DPAFEQCQFAAAMCLHH (linker 7-14 via Phenylene(1,4-NHCOCH2)2 (inferred))
21
DPAINMCYRAAQICDVD (linker 7-14 via Phenylene(1,4-NHCOCH2)2 (inferred))
27

====

assay_system: CDK2 (Homo sapiens)
assay_notes: Phage Library Screening with NGS, CDK2
Format: binding
Design: Full length CDK2 (residues 1-298) with an N-terminal GST-3C-6×his-TEV tag; GST-3C-6×his-TEV (N, cleaved yes); made in house; host or cells: Sf9 (Bac-to-Bac baculovirus)
experimental_conditions: CDK2, target concentration 300
Numbered stars: 1 amine (or outer) side, 2 acyl side, 3 side chain; on linkers, the order of the positions; unused ones are H or OH. Bridge positions count the residues as written; N and C are the ends. Ends that are not written are not given here. Phenylene(1,4-NHCOCH2)2 = O=C(C[*:1])Nc1ccc(NC(=O)C[*:2])cc1
property: phage screen counts, Target Concentration 300

Use the examples below as a reference point.
DPAWWRCVVAALDCVDY (linker 7-14 via Phenylene(1,4-NHCOCH2)2 (inferred))
262
MACVDAFFSC (linker 3-10 via Phenylene(1,4-NHCOCH2)2 (inferred))
17
DPAWWTCSVAAIQCWDS (linker 7-14 via Phenylene(1,4-NHCOCH2)2 (inferred))
69
DPAWWHCVIAALDCETQ (linker 7-14 via Phenylene(1,4-NHCOCH2)2 (inferred))
93
DPAWWHCSIAALECHTT (linker 7-14 via Phenylene(1,4-NHCOCH2)2 (inferred))
216
DPAWWSCVIAAMECQDI (linker 7-14 via Phenylene(1,4-NHCOCH2)2 (inferred))
39
ECLSAFFTCV (linker 2-9 via Phenylene(1,4-NHCOCH2)2 (inferred))
57
DPAWYECIVAAIECVEY (linker 7-14 via Phenylene(1,4-NHCOCH2)2 (inferred))
131

P = PCLDAFFYCVT (linker 2-9 via Phenylene(1,4-NHCOCH2)2 (inferred))
Q = DPAWWRCSIAAVDCEMQ (linker 7-14 via Phenylene(1,4-NHCOCH2)2 (inferred))
R = DPAWYACIVAAVDCEHS (linker 7-14 via Phenylene(1,4-NHCOCH2)2 (inferred))
S = PCMDAFFSCVW (linker 2-9 via Phenylene(1,4-NHCOCH2)2 (inferred))
Problem: Let's sort these by phage screen counts, Target Concentration 300, smallest first. Go ahead? Reply: labels, ordered per the request.
Solution: S, P, R, Q

====

assay_system: FBXW7-SKP1 (Homo sapiens, UniProt Q969H0)
Construct: FBXW7 (Uniprot ID: Q969H0, residues 263-706) with an N-terminal GST-TEV tag and C-terminal AVI tag; GST-TEV (N); made in house; host or cells: E. coli BL21 (DE3)
Sequence (Q969H0 263-706): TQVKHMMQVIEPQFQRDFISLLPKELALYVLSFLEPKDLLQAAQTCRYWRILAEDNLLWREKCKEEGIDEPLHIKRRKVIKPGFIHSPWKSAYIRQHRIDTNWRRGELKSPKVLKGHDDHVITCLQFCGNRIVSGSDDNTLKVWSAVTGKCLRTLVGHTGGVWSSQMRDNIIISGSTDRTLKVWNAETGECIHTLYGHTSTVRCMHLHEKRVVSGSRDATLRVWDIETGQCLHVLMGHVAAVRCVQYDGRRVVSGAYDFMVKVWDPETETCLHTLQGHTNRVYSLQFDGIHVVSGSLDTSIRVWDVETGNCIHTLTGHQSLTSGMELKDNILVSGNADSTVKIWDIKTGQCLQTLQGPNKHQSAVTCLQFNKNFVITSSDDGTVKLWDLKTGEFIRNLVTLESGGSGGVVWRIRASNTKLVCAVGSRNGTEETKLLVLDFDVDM
Sequence (P63208 whole entry partner, the tested form may be a part): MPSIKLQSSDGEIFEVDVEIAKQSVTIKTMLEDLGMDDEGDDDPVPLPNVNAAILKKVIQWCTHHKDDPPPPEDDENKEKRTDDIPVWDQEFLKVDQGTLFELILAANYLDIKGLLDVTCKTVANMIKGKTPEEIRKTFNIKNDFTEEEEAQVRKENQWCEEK
assay_notes: Naive Library Presenter Screening (phage, NGS), FBXW7-SKP1
Format: binding
experimental_conditions: FBXW7 target concentration 1000 nM, second column
property: interaction data at Target Concentration 1000

DPAMTWCLNAAELCEFW
83
DPAYFSCEDAAELCEWY
38
DPANIACDDAALLCELW
6

P = DPANIACDDAALLCAFW
Q = DPAITTCLDAAELCDFW
R = DPAAWICEEAAEICEFW
S = DPATYFCYDAAELCDWW
T = DPAFWYCDEAAEMCEFW
Problem: Rank order required: interaction data at Target Concentration 1000, descending. Reply: labels, ordered per the request.
Solution: Q, S, R, T, P
(Q: 132, S: 82, R: 36, T: 17, P: 8)

====

System: Expi293 cells
assay_notes: Measurement of the Cell Association of Helicons (mass spectrometry quantification in cells after treatment and wash)
Type: cell-based
experimental_conditions: percentage of Helicons in cells after treatment and wash, 22 hours, n = 2, mean ± SD
The compounds listed here are annotated with their Helicon in cells ± SD (%).
Entry rule: numbers only, all in %.

CC[C@H](C)[C@H](NC(=O)[C@H](Cc1ccc(O)cc1)NC(=O)[C@H](CCC(N)=O)NC(=O)[C@]1(C)CCCC=CCCCCCC[C@@](C)(NC(=O)[C@H](Cc2c[nH]cn2)NC(=O)[C@@H](NC(=O)[C@@H](NC(C)=O)[C@@H](C)CC)[C@@H](C)CC)C(=O)N[C@@H](Cc2ccc(O)cc2)C(=O)N[C@@H](CCC(=O)O)C(=O)N[C@@H](C)C(=O)N[C@@H](C)C(=O)N[C@@H](Cc2ccccc2)C(=O)N[C@@H](Cc2ccccc2)C(=O)N1)C(N)=O (single isomer, unassigned) [FP08012]
5.4
CC[C@H](C)[C@H](NC(C)=O)C(=O)N[C@@H](CC(C)C)C(=O)N[C@@H](CCC(N)=O)C(=O)N[C@]1(C)CCCCCCC=CCCC[C@@](C)(C(=O)N[C@@H](Cc2c[nH]cn2)C(=O)N[C@@H](Cc2ccc(O)cc2)C(=O)N[C@@H](CCC(N)=O)C(N)=O)NC(=O)[C@H](CO)NC(=O)[C@H](Cc2ccccc2)NC(=O)[C@H](C)NC(=O)[C@H](C)NC(=O)[C@H](CCC(=O)O)NC(=O)[C@H](Cc2ccc(O)cc2)NC1=O (single isomer, unassigned) [FP07859]
0.1
CCCC[C@H](NC(=O)[C@@H](NC(C)=O)C(C)C)C(=O)N[C@@H](CCC(=O)O)C(=O)N[C@]1(C)CCCCCCC=CCCC[C@@](C)(C(=O)N[C@@H](Cc2c[nH]cn2)C(=O)N[C@@H](Cc2ccc(O)cc2)C(=O)N[C@H](C(N)=O)C(C)C)NC(=O)[C@H]([C@@H](C)CC)NC(=O)[C@H](Cc2ccccc2)NC(=O)[C@H](C)NC(=O)[C@H](C)NC(=O)[C@H](CCC(N)=O)NC(=O)[C@H](Cc2ccc(O)cc2)NC1=O (single isomer, unassigned) [FP07867]
8.6

Problem: Would you kindly share the measured Helicon in cells ± SD (%) for CCCC[C@H](NC(=O)[C@@H](NC(C)=O)C(C)C)C(=O)N[C@@H](CCC(N)=O)C(=O)N[C@]1(C)CCCCCCC=CCCC[C@@](C)(C(=O)N[C@@H](Cc2c[nH]cn2)C(=O)N[C@@H](Cc2ccc(O)cc2)C(=O)N[C@H](C(N)=O)C(C)C)NC(=O)[C@H]([C@@H](C)CC)NC(=O)[C@H](Cc2ccccc2)NC(=O)[C@H](C)NC(=O)[C@H](C)NC(=O)[C@H](CCC(=O)O)NC(=O)[C@H](Cc2ccc(O)cc2)NC1=O (single isomer, unassigned) [FP07864] ?
Solution: 18.5
